# System: HOP-18 NSCLC
# assay-summary: NCI tumour cell line growth inhibition, 48 h
Rule: True for TGI not less than 80 µM, False for anything less.

>>> category_label("CCOC(=O)CN(CC)C(=O)NC12CC3CC(CC(C3)C1)C2")
"True"
>>> category_label("O=C1N[C@@H]([C@H]2CC[C@H](Cl)CN2)C(=O)N[C@H]1[C@H]1CC[C@H](Cl)CN1")
"True"
>>> category_label("O=C1c2ccccc2C(=O)c2c1ccc1c3ccccc3n(-c3ccccc3)c21")
"False"
>>> category_label("N/N=C1/C(=O)N(c2ccc(Cl)cc2)C(=O)C(=O)C1c1nc2ccccc2s1 (stereo not drawn)")
"True"

Inquiry: Does the compound O=C1N(c2ccc(Cl)cc2)C(=O)C2(SC=NN2Cc2ccccc2)N1c1ccc(Cl)cc1 (stereo not drawn) have recorded TGI that is 80 µM or more?
Reply text: True

Inquiry: Does the compound CCOC(=O)C1=C(C)N(NC(=O)Nc2ccccc2)C2(N)N(NC(=O)Nc3ccccc3)C(C)=C(C(=O)OCC)C12C#N (stereo not drawn) have recorded TGI that is 80 µM or more?
Reply text: False

Inquiry: Does the compound `O=[N+]([O-])c1ccc(N=P(c2ccccc2)(c2ccccc2)c2ccccc2)n2nnnc12` have recorded TGI that is 80 µM or more?
Reply text: True
